Listed below: logP values for each entry.
# output: bare number, no unit

// known answers, use as guide
CCC(CC)C(=O)NC(N)=O | 0.91
CC(C)C(=O)C(C)C | 1.86

The compound listed as CCC1(c2ccccc2)CCC(=O)NC1=O (configuration not stated) shows logP equal to 1.9

The compound listed as `OCC(Br)(Br)Br` shows logP equal to 2.1

The compound listed as `CC(C)NC(C)C` shows logP equal to 1.4

The compound listed as CCC1(CC(C)C(C)C)C(=O)NC(=O)NC1=O (configuration not stated) shows logP equal to 2.02

The compound listed as `NCCCN1CCN(CCCN)CC1` shows logP equal to -1.43

The compound listed as `CSc1nnc(C(C)(C)C)c(=O)n1N` shows logP equal to 1.7

The compound listed as `CC1=NN(CCOc2ccc3ccccc3c2)C(=O)C1` shows logP equal to 2.74

The compound listed as `Cn1c(C=[N+](C)[O-])cnc1[N+](=O)[O-]` shows logP equal to 0.04

The compound listed as `CNC(=O)OC` shows logP equal to -0.06

====

Listed below: logP values for each entry.

O=C(O)c1cc(Br)ccc1O | 3.23
CCCNC | 0.84
CC(C)Oc1cccc(COC(=O)N(C)C)c1 | 3.03
Cc1c(NC(=O)C(C)N(C)C)c(=O)n(-c2ccccc2)n1C (centres undefined) | -0.05
CN(C)CCN(C)S(=O)(=O)c1ccc(C(C)(C)[N+](=O)[O-])c([N+](=O)[O-])c1 | 1.42

The compound listed as `C/N=C(\N)NC#N` shows logP equal to -0.77

The compound listed as `COc1ccc(NS(=O)(=O)c2ccc(N)cc2)nn1` shows logP equal to 0.32

The compound listed as `Clc1cccc2c1CCNCC2` shows logP equal to 2.4

The compound listed as `CC(=O)Nc1cccc2ncccc12` shows logP equal to 0.71

The compound listed as `Cc1ccc(C(N)=O)cc1` shows logP equal to 1.18

====

Threshold rule: logP greater than or equal to 3 is MET; below that, NOT MET.

Previously resolved entries follow.
CCc1cccc(CC)c1N(COC)C(=O)CCl | MET
O=C1CCCCC1 | NOT MET
CCC(C)(C)C(=O)OC1CC(C)C=C2C=CC(C)C(CCC(O)CC(O)CC(=O)O)C21 (configuration not stated) | MET
Clc1nnnn1-c1ccccc1 | NOT MET
COc1ccc2c(c1)OC(C)(C)C=C2 | MET
Cn1ccc2ccccc21 | NOT MET

State whether the measured logP reaches 3, counting equality as reaching it, for CCC(=O)OC1(C(=O)CCl)C(C)CC2C3CCC4=CC(=O)C=CC4(C)C3C(=O)CC21C (configuration not stated)
MET

====

just bin them by logP: lower band = under 0.4, central band = from 0.4 up to 3, upper band = 3 and over

Previously resolved entries follow.
N=C(N)NCCCCc1ccccc1 | central band
ON=Cc1ccc(Cl)cc1 | central band
O=C1C=CC(=NO)C=C1 | central band
O=NN(CCCl)C(=O)NC1C(O)OC(CO)C(O)C1O (centres undefined) | lower band
CCOP(=S)(OCC)SCn1c(=O)oc2cc(Cl)ccc21 | upper band
Nc1ccc(C(=O)Oc2ccccc2Br)c(O)c1 | upper band

Which logP category applies to `O=C(c1ccccc1)c1ccc(NS(=O)(=O)C(F)(F)F)cc1` here?
upper band

Which logP category applies to `CS(=O)(=O)c1cccc(-c2nc(N)nc(N)n2)c1` here?
lower band

Which logP category applies to CCC(=O)OC1(C(=O)CCl)C(C)CC2C3CCC4=CC(=O)C=CC4(C)C3(F)C(=O)CC21C (centres undefined) here?
upper band

====

Listed below: logP values for each entry.
# output: bare number, no unit

// known answers, use as guide
Clc1cccc(Cl)c1 | 3.53
CCCCOCN(C(=O)CCl)c1c(CC)cccc1CC | 4.5
CCCOC | 1.21
Brc1ccccc1Br | 3.64
NC(=O)CCN1CCc2cccc(Cl)c2CC1 | 1.64

The compound listed as `Brc1ccc2cccnc2c1` shows logP equal to 2.92

The compound listed as COc1cccc2c1C(=N)c1c(O)c3c(c(O)c1C2=O)CC(O)(C(O)CO)CC3OC1CC(N2CCOCC2)C(O)C(C)O1 (configuration not stated) shows logP equal to 1.43

====

just bin them by logP: 1 = under 1, 2 = from 1 up to 2, 3 = 2 and over

Previously resolved entries follow.
O=C1c2ccccc2C(=O)c2ccccc21 | 3
CN1C(=O)CN=C(c2ccccc2F)c2cc(F)ccc21 | 3
CC(=O)OC(OC(C)=O)c1ccc([N+](=O)[O-])o1 | 2
Cc1ccc(S(=O)(=O)F)cc1 | 3
O=NN1CCC(Br)C(Br)C1 (stereo unspecified) | 2
Clc1ccc2ccccc2c1Cl | 3
O=C(O)COc1ccc(Br)cc1 | 3
C#CCC(O)c1cccnc1 (stereo unspecified) | 2
OCc1ccncc1 | 1
O=[N+]([O-])c1nccn1CC(F)CO (stereo unspecified) | 1

Which logP category applies to CC(C)N1CCOC(c2ccccc2)C1 (stereo unspecified) here?
3

Which logP category applies to `O=C(O)Cc1cccc(I)c1` here?
3

Which logP category applies to `CNC(=O)Oc1cccc(C=O)c1` here?
1

Which logP category applies to `CC(=O)Nc1cnc2ccccc2n1` here?
2

Which logP category applies to `C1COCCO1` here?
1

====

Listed below: logP values for each entry.
# output: bare number, no unit

// known answers, use as guide
Clc1ccc(-c2c(Cl)cccc2Cl)cc1 | 5.75
C=O | 0.35
CCCCCCOCc1cccc(NC(=O)OCCN2CCCCC2)c1 | 4.97
CCC(=O)OC1(C(C)=O)C(C)CC2C3CCC4=CC(=O)C=CC4(C)C3(F)C(O)CC21C (centres undefined) | 3.09
CCN(N=O)C(C)C | 0.9
CCc1ccc(C(=O)OCCN(C)C)cc1 | 3.15

Pending compound:
The compound listed as `Nc1ccc2ncccc2c1` shows logP equal to 1.28

====

Peptide text beside a SMILES is read from it.
just bin them by logP: lo = under 1, mid = from 1 up to 2, hi = 2 and over

Previously resolved entries follow.
CS(=O)(=O)c1ccccc1 | lo
CN(C)C(=O)C12CC3CC(CC(C3)C1)C2 | hi
CC12C=CC(=O)C=C1CCC1C2C(O)CC2(C)C1CCC2(O)C(=O)COC1OC(CO)C(O)C(O)C1O (configuration not stated) | lo
CC(=O)Nc1ccc(S(=O)(=O)F)cc1 | hi
NCCCC[C@H](N)C(=O)O | lo
C1COCCOCCOCCOCCO1 | lo

Which logP category applies to CCC(C)C(NC(=O)C(CC(N)=O)NC(C)=O)C(N)=O (stereo not drawn) (Ac-Asn-Ile-NH2; configuration not given here) here?
lo

Which logP category applies to `CC(C)(C)c1ccc(N)cc1` here?
hi

Which logP category applies to `CN1C(=O)CN=C(c2ccccc2)c2cc(C#N)ccc21` here?
mid

Which logP category applies to `CCOC(=O)C(F)(F)F` here?
mid

====

Readout Name: logP
# output: bare number, no unit

The compound listed as `C[C@]12CC[C@H](O)C[C@H]1CC[C@@H]1[C@@H]2CC[C@]2(C)[C@@H](C3=CC(=O)OC3)CC[C@]12O` shows logP equal to 2.64

====

Listed below: logP values for each entry.
# output: bare number, no unit

// known answers, use as guide
NS(=O)(=O)c1cc2c(cc1Br)NCNS2(=O)=O | 0.08
CCS(=O)(=O)CCn1c([N+](=O)[O-])cnc1C | -0.35
Nc1cc2ccccc2nn1 | 1
CCCCn1cnc2c(NC(C)=O)ncnc21 | 0.55
CCCc1ccncc1 | 2.1

The compound listed as `Cc1ncc([N+](=O)[O-])n1CCCl` shows logP equal to 0.88

The compound listed as `Nc1nc2nc[nH]c2c(=S)[nH]1` shows logP equal to -0.07

The compound listed as `CCOP(=S)(OCC)SCn1nnc2ccccc2c1=O` shows logP equal to 3.4

The compound listed as `CCOc1cccc(Cl)n1` shows logP equal to 2.55

The compound listed as `OCCCCCc1ccccn1` shows logP equal to 1.28

The compound listed as `CNC(=O)Oc1cccc(C)c1C` shows logP equal to 1.95

The compound listed as `c1ccc2nc(-c3ccc4ccccc4n3)ccc2c1` shows logP equal to 4.31

The compound listed as `NC(=O)CCc1ccncc1` shows logP equal to -0.25

The compound listed as `CC(=O)CCC(=O)O` shows logP equal to -0.49

The compound listed as `NS(=O)(=O)c1ccc(O)cc1` shows logP equal to 0.06

The compound listed as `O=C(O)Cc1ccc(OCCc2ccccc2)c(Cl)c1` shows logP equal to 3.53

The compound listed as `COc1cc(OC)cc(C(=O)O)c1` shows logP equal to 2.19

The compound listed as `Oc1cccc(Cl)c1Cl` shows logP equal to 2.84

The compound listed as `Cc1cccc(C(=O)O)c1O` shows logP equal to 2.86

The compound listed as CN(C)C(N(C)C)=S(I)c1ccccc1F (stereo not drawn) shows logP equal to -0.55

The compound listed as `CCBr` shows logP equal to 1.61

The compound listed as `O=C(O)CCCCCc1ccccc1` shows logP equal to 3.27

The compound listed as `O=C(c1ccccc1)c1cccnc1` shows logP equal to 1.88

The compound listed as `c1ccc2c(c1)CCCN2` shows logP equal to 2.29

The compound listed as `CC(=O)OCc1ccc([N+](=O)[O-])cc1` shows logP equal to 1.73
